biological target: α4β1 integrin (Homo sapiens, UniProt P05556+P13612); construct: endogenous in cells; host or cells: Ramos cells; experiment: Inhibition of adhesion of calcein AM-labeled Ramos cells to CS1 (fibronectin) peptide-conjugated ovalbumin; type: cell-based; conditions: Table 2; Ramos cell adhesion to CS1-conjugated ovalbumin, 30 minutes at 37° C.
Sequence (P13612 34-1032): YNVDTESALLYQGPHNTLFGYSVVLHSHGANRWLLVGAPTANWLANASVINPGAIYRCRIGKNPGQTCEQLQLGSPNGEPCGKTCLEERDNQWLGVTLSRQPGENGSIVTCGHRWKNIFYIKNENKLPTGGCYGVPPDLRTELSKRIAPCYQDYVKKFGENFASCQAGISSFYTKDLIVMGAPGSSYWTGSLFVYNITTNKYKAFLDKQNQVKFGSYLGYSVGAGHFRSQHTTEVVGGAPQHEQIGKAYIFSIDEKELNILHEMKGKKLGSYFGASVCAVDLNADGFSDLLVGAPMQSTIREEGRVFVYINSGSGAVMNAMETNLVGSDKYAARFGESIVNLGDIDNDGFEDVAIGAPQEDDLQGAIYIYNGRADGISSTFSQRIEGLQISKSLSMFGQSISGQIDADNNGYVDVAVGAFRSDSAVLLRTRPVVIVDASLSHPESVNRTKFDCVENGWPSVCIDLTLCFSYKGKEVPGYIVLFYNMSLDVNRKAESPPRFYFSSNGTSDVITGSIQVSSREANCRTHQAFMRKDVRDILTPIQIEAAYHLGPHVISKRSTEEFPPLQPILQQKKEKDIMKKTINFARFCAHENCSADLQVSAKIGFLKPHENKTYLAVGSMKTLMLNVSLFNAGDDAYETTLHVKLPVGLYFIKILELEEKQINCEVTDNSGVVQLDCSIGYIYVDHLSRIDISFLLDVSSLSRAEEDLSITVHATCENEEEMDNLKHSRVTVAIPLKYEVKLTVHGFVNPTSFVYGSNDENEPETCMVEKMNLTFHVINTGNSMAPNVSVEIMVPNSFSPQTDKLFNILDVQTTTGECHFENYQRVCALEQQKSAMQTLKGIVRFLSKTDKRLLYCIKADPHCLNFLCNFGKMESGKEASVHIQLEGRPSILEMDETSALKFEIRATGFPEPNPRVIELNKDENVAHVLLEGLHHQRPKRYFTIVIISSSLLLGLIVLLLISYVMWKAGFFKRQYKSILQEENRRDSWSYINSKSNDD
Sequence (P05556 21-798): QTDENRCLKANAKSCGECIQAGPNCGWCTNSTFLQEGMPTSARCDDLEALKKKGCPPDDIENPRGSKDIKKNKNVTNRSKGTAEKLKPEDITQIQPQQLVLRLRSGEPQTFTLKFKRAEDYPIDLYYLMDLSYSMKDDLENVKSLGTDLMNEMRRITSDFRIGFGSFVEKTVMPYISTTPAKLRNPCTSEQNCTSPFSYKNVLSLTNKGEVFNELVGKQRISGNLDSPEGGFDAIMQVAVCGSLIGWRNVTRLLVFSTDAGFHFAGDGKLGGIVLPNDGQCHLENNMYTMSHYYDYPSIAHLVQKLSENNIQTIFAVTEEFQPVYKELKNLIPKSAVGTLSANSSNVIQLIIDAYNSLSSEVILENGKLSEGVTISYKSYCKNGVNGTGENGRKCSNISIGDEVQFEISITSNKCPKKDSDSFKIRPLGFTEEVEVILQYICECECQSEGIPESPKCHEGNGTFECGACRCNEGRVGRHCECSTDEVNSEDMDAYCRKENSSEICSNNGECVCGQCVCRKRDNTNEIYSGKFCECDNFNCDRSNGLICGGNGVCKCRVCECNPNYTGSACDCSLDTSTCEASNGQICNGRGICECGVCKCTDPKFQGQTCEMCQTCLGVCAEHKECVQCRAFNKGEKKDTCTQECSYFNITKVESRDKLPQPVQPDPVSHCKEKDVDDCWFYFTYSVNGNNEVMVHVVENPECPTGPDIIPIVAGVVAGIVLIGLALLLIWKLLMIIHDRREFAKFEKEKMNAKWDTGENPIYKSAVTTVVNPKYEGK
pIC50: −log10 of the molar value.
Some compounds, each annotated with its measured pIC50.

{"COMPOUND": "CCCC[C@@H](C(=O)N[C@@H](CC(=O)O)c1ccc2c(c1)OCO2)N1CCC(c2cccs2)N(Cc2cccs2)C1=O (stereo partly drawn)", "pIC50": 7.30}
{"COMPOUND": "CCCC[C@@H](C(=O)N[C@@H](CC(=O)O)c1ccc2c(c1)OCO2)N1CCN(Cc2cccs2)C1=O", "pIC50": 6.82}
{"COMPOUND": "CCCC[C@@H](C(=O)N[C@@H](CC(=O)O)c1ccc2c(c1)OCO2)N1CCCN(Cc2cccs2)C1=O", "pIC50": 8.30}

====

molecular target: α4β1 integrin (Homo sapiens, UniProt P05556+P13612); construct: endogenous in cells; host or cells: Ramos cells; experiment: Inhibition of adhesion of calcein AM-labeled Ramos cells to CS1 (fibronectin) peptide-conjugated ovalbumin; format: cell-based; conditions: Table 3; Ramos cell adhesion to CS1-conjugated ovalbumin, 30 minutes at 37° C.
Some compounds, each annotated with its measured IC50.

{"COMPOUND": "CCC(C(=O)N[C@@H](CC(=O)O)c1ccc2c(c1)OCO2)n1cccc(Cc2ccccc2)c1=O (some centres unmarked)", "IC50": "30 nM"}
{"COMPOUND": "CCCCC(C(=O)N[C@@H](CC(=O)O)c1ccc2c(c1)OCO2)n1cc(Cc2ccccc2)ccc1=O (some centres unmarked)", "IC50": "40 nM"}
{"COMPOUND": "CCCCC(C(=O)N[C@@H](CC(=O)O)c1ccc2c(c1)OCO2)n1c(=O)n(Cc2ccccc2)c2ccccc21 (some centres unmarked)", "IC50": "70 nM"}
{"COMPOUND": "CCCCC(C(=O)N[C@@H](CC(=O)O)c1ccc2c(c1)OCO2)n1ccn(Cc2ccccc2)c1=O (some centres unmarked)", "IC50": "60 nM"}
{"COMPOUND": "CCCC[C@@H](C(=O)N[C@@H](CC(=O)O)c1ccc2c(c1)OCO2)N1CC(=O)N(Cc2cccs2)c2ccccc2C1=O", "IC50": "1500 nM"}
{"COMPOUND": "CCCC[C@@H](C(=O)N[C@@H](CC(=O)O)c1ccc2c(c1)OCO2)n1c(=O)c2ccccc2n(Cc2ccccc2)c1=O", "IC50": "100 nM"}
{"COMPOUND": "CCCCC(C(=O)N[C@@H](CC(=O)O)c1ccc2c(c1)OCO2)N1C(=O)N(Cc2ccccc2)C(=O)C1(C)C (some centres unmarked)", "IC50": "20000 nM"}
{"COMPOUND": "CCCC(C(=O)N[C@@H](CC(=O)O)c1ccc2c(c1)OCO2)n1cccc(Cc2ccccc2)c1=O (some centres unmarked)", "IC50": "60 nM"}

====

molecular target: α4β1 integrin (Homo sapiens, UniProt P05556+P13612); construct: endogenous in cells; host or cells: Ramos cells; assay: Inhibition of adhesion of calcein AM-labeled Ramos cells to CS1 (fibronectin) peptide-conjugated ovalbumin; type: cell-based; details: Table 4; Ramos cell adhesion to CS1-conjugated ovalbumin, 30 minutes at 37° C.

{"COMPOUND": "CCCCC(C(=O)N[C@@H](CC(=O)O)c1ccccc1)n1cc(C)cc(Cc2ccc3ccccc3c2)c1=O (some centres unmarked)", "TESTED TARGET": "α4β1 integrin (Homo sapiens, UniProt P05556+P13612)", "IC50": "30 nM"}
{"COMPOUND": "Cc1cc(C(C(=O)N[C@@H](CC(=O)O)c2cccc(OC(C)C)c2)c2ccccc2)c(=O)n(Cc2ccccc2)c1 (some centres unmarked)", "TESTED TARGET": "α4β1 integrin (Homo sapiens, UniProt P05556+P13612)", "IC50": "10 nM"}
{"COMPOUND": "CCCCC(C(=O)N[C@@H](CC(=O)O)c1ccc2ccn(C)c2c1)n1cc(C)cc(Cc2ccccc2)c1=O (some centres unmarked)", "TESTED TARGET": "α4β1 integrin (Homo sapiens, UniProt P05556+P13612)", "IC50": "10 nM"}
{"COMPOUND": "CCCCC(C(=O)N[C@@H](CC(=O)O)c1ccc(C)cc1)n1cc(C)cc(Cc2ccccc2Cl)c1=O (some centres unmarked)", "TESTED TARGET": "α4β1 integrin (Homo sapiens, UniProt P05556+P13612)", "IC50": "15 nM"}
{"COMPOUND": "CCCCC(C(=O)N[C@@H](CC(=O)O)c1cccc(OC(C)C)c1)n1cc(C)cc(Cc2cccc(Cl)c2)c1=O (some centres unmarked)", "TESTED TARGET": "α4β1 integrin (Homo sapiens, UniProt P05556+P13612)", "IC50": "20 nM"}
{"COMPOUND": "CCCCC(C(=O)N[C@@H](CC(=O)O)c1cccc(OC(C)C)c1)n1cc(C)cc(Cc2cccc(Cl)c2Cl)c1=O (some centres unmarked)", "TESTED TARGET": "α4β1 integrin (Homo sapiens, UniProt P05556+P13612)", "IC50": "68 nM"}
{"COMPOUND": "CCCCC(C(=O)N[C@@H](C(=O)O)c1ccccc1)n1cc(C)cc(Cc2ccccc2)c1=O (some centres unmarked)", "TESTED TARGET": "α4β1 integrin (Homo sapiens, UniProt P05556+P13612)", "IC50": "> 10000 nM"}
{"COMPOUND": "CCCCC(C(=O)N[C@@H](CC(=O)O)c1cccc(OC(C)C)c1)n1cc(C)cc(Cc2ccccc2OCC)c1=O (some centres unmarked)", "TESTED TARGET": "α4β1 integrin (Homo sapiens, UniProt P05556+P13612)", "IC50": "19 nM"}

====

molecular target: α4β1 integrin (Homo sapiens, UniProt P05556+P13612); construct: endogenous in cells; host or cells: Ramos cells; experiment: Inhibition of adhesion of calcein AM-labeled Ramos cells to CS1 (fibronectin) peptide-conjugated ovalbumin; type: cell-based; conditions: Table 4; Ramos cell adhesion to CS1-conjugated ovalbumin, 30 minutes at 37° C.
pIC50: −log10 of the molar value.

{"MOLECULE": "CCCCC(C(=O)N[C@@H](CC(=O)O)c1cccc(OC(C)C)c1)n1cc(C)cc(Cc2ccccc2)c1=O (stereo partly shown)", "TESTED TARGET": "α4β1 integrin (Homo sapiens, UniProt P05556+P13612)", "pIC50": 8.40}
{"MOLECULE": "CCCCC(C(=O)N[C@@H](CC(=O)O)c1cccc(OC(C)C)c1)n1cc(C)cc(Cc2ccccc2OC)c1=O (stereo partly shown)", "TESTED TARGET": "α4β1 integrin (Homo sapiens, UniProt P05556+P13612)", "pIC50": 8.40}
{"MOLECULE": "CCCCC(C(=O)N[C@@H](CC(=O)O)c1cccc(OC(C)C)c1)n1cc(C)cc(Cc2c(Cl)cc(Cl)cc2OC)c1=O (stereo partly shown)", "TESTED TARGET": "α4β1 integrin (Homo sapiens, UniProt P05556+P13612)", "pIC50": 6.56}
{"MOLECULE": "CCCC[C@@H](C(=O)N[C@@H](CC(=O)O)c1ccc(OC)c(F)c1)n1cc(C)cc(Cc2ccccc2)c1=O", "TESTED TARGET": "α4β1 integrin (Homo sapiens, UniProt P05556+P13612)", "pIC50": 7.77}

====

Target: α4β1 integrin (Homo sapiens, UniProt P05556+P13612)
Construct: endogenous in cells; host or cells: Ramos cells
Assay: Inhibition of adhesion of calcein AM-labeled Ramos cells to CS1 (fibronectin) peptide-conjugated ovalbumin
Format: cell-based
Conditions: Table 1; Ramos cell adhesion to CS1-conjugated ovalbumin, 30 minutes at 37° C.
Description: The ability of compounds of the present invention to inhibit binding is determined by a procedure in which a 26-amino acid peptide containing the CS1 sequence of fibronectin with an N-terminal Cys ([…]) was coupled to maleimide activated ovalbumin. […] Following three washes with binding buffer, adherent cells were lysed and quantitated using a fluorometer. […] MS in Table 3 stands for Mass Spec. nd stands for not determined in the Tables. […]
pIC50: −log10 of the molar value.
MEASUREMENT KIND: pIC50

{"MOLECULE": "CCCCC(C(=O)N[C@@H](CC(=O)O)c1ccc2c(c1)OCO2)n1cc(C)cc(Cc2ccc(F)cc2)c1=O (mixture of isomers)", "ENDPOINT RESULT": 7.22}
{"MOLECULE": "CCCCC(C(=O)N[C@@H](CC(=O)O)c1ccc2c(c1)OCO2)n1cc(C)cc(Cc2ccc(OC)cc2)c1=O (mixture of isomers)", "ENDPOINT RESULT": 7.52}
{"MOLECULE": "CCCC[C@@H](C(=O)N[C@@H](CC(=O)O)c1ccc2c(c1)OCO2)n1cc(C)cc(Cc2ccccc2)c1=O", "ENDPOINT RESULT": 8.52}
